# experimental target: human activated kallikrein enzyme (Homo sapiens (Human), UniProt P03952)
# Sequence (P03952 391-638): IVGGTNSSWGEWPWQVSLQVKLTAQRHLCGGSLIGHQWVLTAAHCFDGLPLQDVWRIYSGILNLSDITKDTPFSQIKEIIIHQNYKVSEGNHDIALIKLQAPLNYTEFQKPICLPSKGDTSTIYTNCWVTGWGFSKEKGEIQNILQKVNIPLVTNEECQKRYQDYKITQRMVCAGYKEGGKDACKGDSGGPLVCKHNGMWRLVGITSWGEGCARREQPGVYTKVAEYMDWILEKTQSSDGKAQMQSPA
# Sequence (P03952 20-390 partner): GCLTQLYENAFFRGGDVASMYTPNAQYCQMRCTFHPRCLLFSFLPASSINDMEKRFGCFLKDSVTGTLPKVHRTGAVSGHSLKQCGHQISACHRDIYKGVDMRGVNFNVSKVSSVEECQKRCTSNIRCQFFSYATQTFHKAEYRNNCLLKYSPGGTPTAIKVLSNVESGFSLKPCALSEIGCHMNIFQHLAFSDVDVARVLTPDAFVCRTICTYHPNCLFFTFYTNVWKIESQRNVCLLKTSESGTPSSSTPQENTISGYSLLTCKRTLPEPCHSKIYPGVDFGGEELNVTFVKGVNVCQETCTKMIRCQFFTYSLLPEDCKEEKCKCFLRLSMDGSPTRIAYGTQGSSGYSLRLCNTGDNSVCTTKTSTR
# assay procedure: Plasma kallikrein inhibition assay with fluorogenic peptide substrate, 500 pM activated kallikrein format
# Assay type: biochemical
# conditions: 500 pM activated kallikrein; 300 uM Pro-Phe-Arg-7-amido-4-methylcoumarin substrate; 30 min preincubation, 10 min reaction at RT; read-out: Primary Dose Response Assay: Average EC50
# EC50 annotations

| compound | experimental target | EC50 |
| --- | --- | --- |
| COc1ccc(-n2cnnn2)c(CNC(=O)c2ccn(Cc3cn4cc(C5CC5)ccc4n3)c2)c1F | human activated kallikrein enzyme (Homo sapiens (Human), UniProt P03952) | ≤ 1 nM |
| Nc1nnc(CNC(=O)c2cn(Cc3cn4cc(C5CC5)ccc4n3)nn2)[nH]1 | human activated kallikrein enzyme (Homo sapiens (Human), UniProt P03952) | 2000 to 7100 nM |
| CCOC(=O)CCc1cc(C2CC2)cn2cc(Cn3cc(C(=O)NCc4c(C#N)ccc(OC)c4F)nn3)nc12 | human activated kallikrein enzyme (Homo sapiens (Human), UniProt P03952) | 1 to 10 nM |
| COc1ccc(F)c(CNC(=O)c2cn(Cc3cn4cc(C5CC5)cc(CN)c4n3)nn2)c1F | human activated kallikrein enzyme (Homo sapiens (Human), UniProt P03952) | 1 to 10 nM |
| O=C(NCc1cccc2ccc(Cl)cc12)c1cnn(Cc2cn3cc(C4CC4)ccc3n2)c1 | human activated kallikrein enzyme (Homo sapiens (Human), UniProt P03952) | 2000 to 7100 nM |
| O=C(NC1CCc2c(Cl)ccn3cnc1c23)c1cn(Cc2cn3cc(C4CC4)ccc3n2)nn1 (stereo not shown) | human activated kallikrein enzyme (Homo sapiens (Human), UniProt P03952) | 10 to 100 nM |
| O=C(NCc1ccc2sccc2c1)c1cn(Cc2cn3cc(C4CC4)ccc3n2)nn1 | human activated kallikrein enzyme (Homo sapiens (Human), UniProt P03952) | 100 to 2000 nM |
| O=C(NCc1cc2c(cn1)NCC2)c1cn(Cc2cn3cc(C4CC4)ccc3n2)nn1 | human activated kallikrein enzyme (Homo sapiens (Human), UniProt P03952) | 100 to 2000 nM |

# query: EC50 | item COc1ccc(-n2cnnn2)c(CNC(=O)c2cn3c(n2)OCC3c2cn3cc(C4CC4)ccc3n2)c1F (stereo not shown) | system: human activated kallikrein enzyme (Homo sapiens (Human), UniProt P03952)
10 to 100 nM

Under human activated kallikrein enzyme (Homo sapiens (Human), UniProt P03952): EC50 value of COc1ccnc(CNC(=O)c2cnc3n2C(c2cn4cc(C5CC5)ccc4n2)CC3)c1F (stereo not shown) ?
> 7100 nM

Request: EC50, test system human activated kallikrein enzyme (Homo sapiens (Human), UniProt P03952), entry COc1ccc(-c2nnco2)c(CNC(=O)c2cn(Cc3cn4cc(C5CC5)ccc4n3)nn2)c1F
10 to 100 nM

What measured EC50 is associated with O=C(NC1Cc2ccc(Cl)cc21)c1cn(Cc2cn3cc(C4CC4)ccc3n2)nn1 (stereo not shown) on human activated kallikrein enzyme (Homo sapiens (Human), UniProt P03952)?
100 to 2000 nM

I'm curious: which EC50 was measured for O=C(NCCc1cccc(Br)c1)c1cnn(Cc2cn3cc(C4CC4)ccc3n2)c1 tested on human activated kallikrein enzyme (Homo sapiens (Human), UniProt P03952)?
100 to 2000 nM

Data provenance is patent US11787796B2.
